assay: in vitro; conditions: human, Caco-2
Description: Efflux ratio of apparent permeability across basolateral to apical side over apical to basolateral side in human Caco-2 cells
READOUT_KIND: efflux ratio
Just the number.

Reported efflux ratio of "C/C(O)=C(\C#N)C(=O)Nc1cc(O[C@@H](C)C(F)(F)F)c(C(=O)Nc2c(F)cccc2Cl)cc1F" : 7

* * *

assay: Plasma protein binding in rat at 1 uM incubated for 5 hrs by LC-MS analysis; type: ADME, cell-free; details: read-out: PPB (converted)
READOUT_KIND: fraction unbound at 5 h, 1 µM
Just the number.

C/C(O)=C(\C#N)C(=O)Nc1cc(O[C@@H](C)C(F)(F)F)c(C(=O)Nc2c(F)cccc2F)cc1F ... 0.014

Lab note: next molecule to report on.
Reported fraction unbound at 5 h, 1 µM of "C/C(O)=C(\C#N)C(=O)Nc1cc(O[C@@H](C)C(F)(F)F)c(C(=O)Nc2c(F)cccc2Cl)cc1F" : 0.057
